// reported melting point for each item listed

Solved cases below.
Nc1ccccc(Br)c1=O    133 to 135 °C
CCOC(=O)N1C=CC(c2c(-c3ccccc3)nn3ccccc23)C=N1 (stereo not given)    173 to 174 °C
COc1ccc(CCN2CCN(C(=O)c3ccc(N(CCOC(C)C)C(=O)CCl)cc3)CC2)cc1    139 to 140 °C
COC(=O)c1c(OCc2ccccc2)ccc2c1CC[C@H](NC(C)(C)C)[C@@H]2O (relative stereo)    104 to 105 °C

Okay, now this compound:
// returns reported melting point for input CC(=O)CCC(=S)N(CC(=O)O)C1Cc2ccccc2C1 120 to 122 °C

* * *

Below, each of the compounds is paired with its reported melting point value.

Solved cases below.
COCCC(=O)OC[C@@H]1CC(c2ccc(-c3ccc(N4C[C@H](Cn5ccnn5)OC4=O)cc3F)cn2)=NO1    149 °C
C=CCN1CCN(c2cc(-c3ccccc3)c3ccc(=O)ccn23)CC1    125 °C
CCCn1c(=O)c2ccc(NC(=O)CC3CCCC3)cc2n1Cc1ccc(C(=O)O)cc1OC    122 to 125 °C
CC(C)(C)OC(=O)N1CC(CCl)c2ccc([N+](=O)[O-])cc21 (stereo not given)    111 to 112 °C
Cc1cc([N+](=O)[O-])c(NC(C)C)c([N+](=O)[O-])c1C    69 to 70 °C

I would be grateful if you could share the reported melting point for OCc1cccc(-c2cc3nccnc3[nH]2)c1 . 225 to 226 °C

Would you kindly repeat that for CC(C)Cn1cnc(C#N)c1N ? 186 to 188 °C

Same lookup for CSc1nc2ccccc2n1C1CCN(CCCC(=O)c2ccc(F)cc2)CC1 , please. 98 to 98.5 °C

// repeat for Cc1c(-c2ccccc2)oc2c(C(=O)NCCCN3CCN(c4ccccc4OC(F)(F)F)CC3)cccc2c1=O and report 103 to 112 °C

Same question, O=S1(=O)N=CN(C2CCCCCCC2)c2cc(Cl)ccc21 this time 209 to 211 °C

* * *

Parameter: melting point

State the recorded melting point for this entry: N#Cc1cc(-c2nc3cncnc3s2)ccc1Oc1ccccc1O 255 to 256 °C

Moving on to CCC(C)c1ccc(-n2c(-c3cc(C)c(OCCO)c(C)c3)nc3ccc(F)cc3c2=O)cc1 (stereo not given) 70 to 72 °C

Also CCC(=CC(CNC(=O)c1cccnc1SC)=NO)C(C)[N+](=O)[O-] (stereo not given) , if possible. 161 to 163 °C

Next entry: COC12CC(COS(=O)(=O)c3ccc(C)cc3)CN(C)C1Cc1cn(C(C)(C)C)c3cccc2c13 (stereo not given) 150 to 152 °C

Also, CCCCSc1ccc(-c2cc3ccccc3[nH]2)cc1 please. 189 to 191 °C

Continue with CC(CCCC(C)(C)O)C1CCC2C3=CC=C4CC(O)CCC4(C)C3CCC21C (stereo not given) 122 to 125 °C

Same lookup for CCOC(=O)c1c(C)nc(S)c(N)c1NCCCN(C)C , please. 110 to 112 °C

Further, for CCOC(=O)C1CCc2scnc2C1=O (stereo not given) ? 81 to 82 °C

Continue with O=C(O)c1cccc(-c2ccc3c(c2)N(Cc2cc(Cl)cc(Cl)c2)CC3)c1 207 to 208 °C

Next molecule up: O=C1Nc2ccc([N+](=O)[O-])cc2Cn2nnnc21 276 to 279 °C
